- method.description: Plasma pharmacokinetics after 1 mg/kg PO in female mice
- study.conditions: mouse, T1/2, Table 4, PO 1 mg/kg, female mice
measurement.kind: half-life (h)
Report as a plain number; the unit h is understood.

Q: Would you mind telling me what half-life value was observed for Cn1nc(C(F)(F)F)cc1-c1c(F)cc(OCc2ccc(Cl)cc2)c(-c2ccc(Cl)c(C(F)(F)F)c2)c1O ?
Result: 4.3

* * *

- Test system: ATF4
- method.description: ATF4 protein level in PC3 cells by western blot, 24 hr
- Format: cell-based
- study.conditions: Homo sapiens, PC-3, PC3, 24 h, Actin control, read-out: Relative ATF4 protein at 10 μM (fold change, PC3 24 h)
Measured fold induction at 10 µM by item
No unit in the answer, only the number.

Cn1nc(C(F)(F)F)cc1-c1cc2c(c(-c3ccc(Cl)c(C(F)(F)F)c3)c1O)CN(Cc1ccc(Cl)cc1)CC2 ... 14.6

Q: Would you mind telling me what fold induction at 10 µM value was observed for Cc1ncsc1-c1ccc(CNC(=O)[C@@H]2C[C@H](O)CN2C(=O)[C@H](NC(=O)COCCNC(=O)CCOCCCN(C(=O)c2ccc(Cl)c(C(F)(F)F)c2)c2ccc(-c3cc(C(F)(F)F)nn3C)c(O)c2)C(C)(C)C)cc1 ?
Result: 1.8

Q: Would you mind telling me what fold induction at 10 µM value was observed for Cn1nc(C(F)(F)F)cc1-c1ccc(N)c(-c2ccc(Cl)c(C(F)(F)F)c2)c1O ?
Result: 1.1
